- assay-summary: Plasma concentration versus time of Compound I and metabolite Compound III in patients dosed QD or BID with Form B of Compound II plus fulvestrant
- Format: in vivo, human
- stated-conditions: human, plasma, oral, 400 mg, 400 mg QD of Form B, Day 29, 6.0 h, Mean; read-out: Compound I Concentration
attribute-measured: concentration at 6 h (ng/mL)

> print(dat)
                               smiles.entry    attribute.measured  numeric.result
1  CC(C)N1CCN(c2ccc(Nc3ncc4cc5n(c4n3)C3(CCCCC3)CNC5=O)nc2)CC1  concentration at 6 h            18.9

---

- assay-summary: Plasma concentration versus time of Compound I and metabolite Compound III in patients dosed QD or BID with Form B of Compound II plus fulvestrant
- Format: in vivo, human
- stated-conditions: human, plasma, oral, 500 mg, Cohort 4, 500 mg QD of Form B, Day 8; read-out: Trough Compound III Concentration, Max
attribute-measured: concentration at 8 day

> print(dat)
                                   compound      attribute.measured      result
1  O=C1NCC2(CCCCC2)n2c1cc1cnc(Nc3ccc(N4CCNCC4)cn3)nc12 [Compound III]  concentration at 8 day  1.98 ng/mL

---

- assay-summary: Pharmacokinetics of Compound I in healthy volunteers after a single dose of Form B of Compound II
- Type: in vivo, human
- stated-conditions: human, blood, oral, single 100 mg dose of Form B of Compound II
attribute-measured: half-life (h)

> print(dat)
                               smiles.entry  reading.unit  numeric.result
1  CC(C)N1CCN(c2ccc(Nc3ncc4cc5n(c4n3)C3(CCCCC3)CNC5=O)nc2)CC1             h            4.71

---

- assay-summary: Noncompartmental pharmacokinetic parameters (Cmax, Tmax, AUC, Racc) in QD and BID cohorts of Form B
- Format: in vivo, human
- stated-conditions: human, plasma, oral, 200 mg, Compound I; 200 mg BID of Form B; Cohort 7; Day 1; read-out: AUClast (Median)
attribute-measured: AUC(0-t) (ng·h/mL)

> print(dat)
                               smiles.entry  attribute.measured  reading.unit  numeric.result
1  CC(C)N1CCN(c2ccc(Nc3ncc4cc5n(c4n3)C3(CCCCC3)CNC5=O)nc2)CC1            AUC(0-t)       ng·h/mL             125

---

- assay-summary: Plasma concentration versus time of Compound I and metabolite Compound III in patients dosed QD or BID with Form B of Compound II plus fulvestrant
- Type: in vivo, human
- stated-conditions: human, plasma, oral, 500 mg, Cohort 4, 500 mg QD of Form B, Day 29, 4.0 h; read-out: Compound III Concentration, Min
attribute-measured: concentration at 4 h (ng/mL)

> print(dat)
                               smiles.entry    attribute.measured  numeric.result
1  O=C1NCC2(CCCCC2)n2c1cc1cnc(Nc3ccc(N4CCNCC4)cn3)nc12  concentration at 4 h            4.04

---

- assay-summary: Steady-state AUC0-24,ss, (AUC0-24,ss)/dose, half-life and time to steady state: Compound I versus palbociclib, ribociclib, abemaciclib
- Assay type: in vivo, human
- stated-conditions: 300 mg QD of Form B of Compound II, Day 29
attribute-measured: (Mean AUC0-24,ss)/Dose (mg)

> print(dat)
                               smiles.entry           attribute.measured           result
1  CC(C)N1CCN(c2ccc(Nc3ncc4cc5n(c4n3)C3(CCCCC3)CNC5=O)nc2)CC1  (Mean AUC0-24,ss)/Dose (mg)  1.97 ng·h/mL/mg
